experiment: Pharmacokinetic study of oral vs intra-cecal tacrolimus: blood, GI tissue, luminal and rectal content concentrations (Example 13); set-up: species or system Yorkshire-Cross farm swine; conditions: female, Yorkshire-Cross, pig, in vivo, po, 0.09 mg/kg, Trough (12 hr)
experimental.endpoint: concentration at 12 h (ng/mL)

1. C=CC[C@@H]1/C=C(\C)C[C@H](C)C[C@H](OC)[C@H]2O[C@@](O)(C(=O)C(=O)N3CCCC[C@H]3C(=O)O[C@H](/C(C)=C/[C@@H]3CC[C@@H](O)[C@H](OC)C3)[C@H](C)[C@@H](O)CC1=O)[C@H](C)C[C@@H]2OC :: 0.568
